assay: self-splicing fitness, log relative to wild type (ln ratio); higher = more splicing; Tetrahymena group I intron in knt gene, E. coli kanamycin selection, DiMSum; sequences stand for … in CUCUCU…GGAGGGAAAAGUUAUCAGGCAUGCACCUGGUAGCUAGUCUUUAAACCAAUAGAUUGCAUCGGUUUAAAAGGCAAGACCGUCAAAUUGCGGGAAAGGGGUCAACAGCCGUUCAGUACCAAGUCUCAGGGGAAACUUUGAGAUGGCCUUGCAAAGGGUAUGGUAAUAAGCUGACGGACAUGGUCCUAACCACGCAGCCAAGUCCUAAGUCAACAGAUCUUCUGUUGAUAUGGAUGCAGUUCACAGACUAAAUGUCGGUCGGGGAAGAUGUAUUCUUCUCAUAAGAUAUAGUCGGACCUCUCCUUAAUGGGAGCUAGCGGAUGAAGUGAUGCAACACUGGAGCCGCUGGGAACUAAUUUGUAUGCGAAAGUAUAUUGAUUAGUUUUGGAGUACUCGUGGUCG; conditions: 37 °C;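 further: selection with 25 µg/mL kanamycin versus none on LB agar overnight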
Known self-splicing fitness (ln) of a selection of sequences
No unit in the answer, only the number.

Field request: self-splicing fitness (ln) | item: "ACACAGCAAUAUUACGACGU" 0.722

Field request: self-splicing fitness (ln) | item: "CUAUAGCAAUAUUACGCAAC" -2.26

Field request: self-splicing fitness (ln) | item: "CGGAAGCAAUAUUACGAAAG" -0.911

Field request: self-splicing fitness (ln) | item: "GCCGAGCAAUAUUACGGAGG" -2.1

Field request: self-splicing fitness (ln) | item: "UAUCAGCAAUAUUACGGUAA" -0.308

Field request: self-splicing fitness (ln) | item: "ACGAAGCAAUAUUACGAGCG" -0.411

Field request: self-splicing fitness (ln) | item: "UCAGAGCAAUAUUACGCGAG" -1.06
